assay: qHTS of pediatric cancer cell lines to identify multiple opportunities for drug repurposing: Confirmatory screen for SK-N-SH cells (AID 1347129); details: SK-N-SH neuroblastoma cell viability; series mostly up to 46.1 µM;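 further: cells exposed to compound for 48 h before viability read; nearly all actives have a fitted effect of over 60% in size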
Results filed as inconclusive are left out. Active and inactive are the calls of the source. The call rests on the fitted dose curve; in most records, active means well fitted cell-killing curve with a large enough effect; inconclusive means small, poorly fitted or top-dose-only effect; inactive means flat fitted curve, though single readings scatter.
Outcomes: t (active), f (inactive)

[[record]]
compound = "CCCCCCCCC(=O)NCc1ccc(O)c(OC)c1"
cat = "f"

[[record]]
compound = "COc1ccc(C(=O)N2CCCC2=O)cc1"
cat = "f"

[[record]]
compound = "COC(=O)C1=CCCN(C)C1"
cat = "f"

[[record]]
compound = "CC1Sc2c(C(=O)O)c(=O)c3cc(F)c(N4CCNCC4)cc3n21 (stereo not drawn)"
cat = "f"

[[record]]
compound = "ClC1=C(Cl)C2(Cl)C(CBr)CC1(Cl)C2(Cl)Cl (stereo not drawn)"
cat = "f"

[[record]]
compound = "O=C(O)Cc1ccccc1"
cat = "f"

[[record]]
compound = "CCc1ccc(C2CCNCC2)cc1"
cat = "f"

[[record]]
compound = "CCCCCCCCCCCC[N+](C)(C)CCOc1ccccc1"
cat = "t"


----------
System: CP203
Experiment: qHTS profiling for inhibitors of Plasmodium falciparum proliferation (AID 504749); further: nearly all actives have a fitted effect of over 60% in size
Conditions: P. falciparum in erythrocytes, SYBR Green DNA, 72 h; series mostly up to 28.7 µM
Method: NIH National Institute of Allergy and Infectious Diseases [NIAID] NIH Chemical Genomics Center [NCGC] […] Because mature erythrocytes lack DNA, only Plasmodium-derived DNA is detected. NCGC Assay Protocol Summary: The SYBR Green viability assay was adapted from a method described previously (Plouffe et al., 2008). […] The following morning, fluorescence intensity at 485(14) nm excitation and 535(25) nm emission wavelengths was measured on an EnVision (Perkin Elmer) plate reader. […]
Results filed as inconclusive are left out. Calls of active or inactive are those of the source. Calls come from the whole dose curve; as a rule, active = well fitted inhibition curve with a large enough effect; inconclusive = small, poorly fitted or top-dose-only effect; inactive = flat fitted curve, though single readings scatter.
Outcomes: active, inactive

[[record]]
compound = "NCc1cccnc1"
cat = "inactive"

[[record]]
compound = "CN(C)C(=S)SSC(=S)N(C)C"
cat = "active"

[[record]]
compound = "CNC(=O)Oc1cccc2ccccc12"
cat = "inactive"

[[record]]
compound = "COCC(=O)N(c1c(C)cccc1C)C(C)C(=O)OC (centres undefined)"
cat = "inactive"

[[record]]
compound = "CCCCCCCCCCCC[N+](C)(C)CCOc1ccccc1"
cat = "active"

[[record]]
compound = "COP(=O)(OC)OC=C(Cl)Cl"
cat = "inactive"

[[record]]
compound = "ClC1=C(Cl)C2(Cl)C(CBr)CC1(Cl)C2(Cl)Cl (centres undefined)"
cat = "inactive"

[[record]]
compound = "CC(C)(O)C(Cl)(Cl)Cl"
cat = "active"

[[record]]
compound = "COP(=S)(OC)Oc1ccc(Sc2ccc(OP(=S)(OC)OC)cc2)cc1"
cat = "inactive"

[[record]]
compound = "COc1ccc(C(=O)N2CCCC2=O)cc1"
cat = "inactive"

[[record]]
compound = "CN1C(=O)CN=C(c2ccccc2)c2cc([N+](=O)[O-])ccc21"
cat = "inactive"

[[record]]
compound = "CNC(=O)NC(O)C(Cl)(Cl)Cl (centres undefined)"
cat = "inactive"

[[record]]
compound = "CC[C@]1(O)CC[C@H]2[C@@H]3CCC4=CCCC[C@@H]4[C@H]3CC[C@@]21C"
cat = "inactive"

[[record]]
compound = "O=c1n(Cl)c(=O)n(Cl)c(=O)n1Cl"
cat = "inactive"


Where do these numbers come from? They come from PubChem BioAssay (NCATS).
